Data origin, for the record: patent US20250122242A1

molecular target: hIAPP-T7n (UniProt P00573+P10997); conditions: positive selection on hIAPP, high-throughput sequencing
Sequence (P10997+P00573 fused): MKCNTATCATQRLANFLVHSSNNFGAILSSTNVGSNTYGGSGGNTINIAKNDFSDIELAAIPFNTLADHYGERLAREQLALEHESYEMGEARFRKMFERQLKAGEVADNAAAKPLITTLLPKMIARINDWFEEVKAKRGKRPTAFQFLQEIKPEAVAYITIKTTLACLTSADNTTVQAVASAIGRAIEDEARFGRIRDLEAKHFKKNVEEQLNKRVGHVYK
Label n if Percent total reads (positive selection) falls below 0.1%; label y in every other case.

{"substance": "CNRLDVS", "category label": "n"}
{"substance": "CGIRSLG", "category label": "y"}
{"substance": "CCHSFFR", "category label": "y"}
{"substance": "CLNYFHG", "category label": "y"}
{"substance": "CISCHYG", "category label": "y"}
{"substance": "CHVHSYL", "category label": "y"}
{"substance": "CIYFHHH", "category label": "y"}
{"substance": "CYILSIG", "category label": "y"}
{"substance": "CFFRGSD", "category label": "n"}
{"substance": "CVSYILL", "category label": "y"}
{"substance": "CHVVGVI (cyclised; Circular) [cyclo-CHVVGVI]", "category label": "y"}
{"substance": "CGLGHGN", "category label": "n"}
{"substance": "CDLGVFR (cyclised; Circular) [cyclo-CDLGVFR]", "category label": "n"}
{"substance": "CFNLVVD", "category label": "n"}
{"substance": "CRCVFSG (cyclised; Circular) [cyclo-CRCVFSG]", "category label": "n"}
{"substance": "CCGLYNI", "category label": "y"}
